System tested: HTRA1
Condition details: ASO, U251, 5 µM
After the bases stand the sugars from the 5' end (letter, count) and the backbone: PS all phosphorothioate, else s phosphorothioate and o phosphodiester by linkage. Methylation of C is not given here. l = locked nucleic acid (LNA); d = 2'-deoxy (DNA)
Mark true for reported target mRNA inhibition of 70% or greater; mark false for anything smaller.

• AATGTGTAAGAAGTAC (sugars l3 d9 l4, PS) = true
• CTACGCATTGTATCGAC (sugars l2 d11 l4, PS) = true
• TGACTTGGAGAAAAGCACAA (sugars l2 d16 l2, PS) = false
• ATGATGACTCAGTTAAAGGA (sugars l4 d14 l2, PS) = false
• GCAATGTGTAAGAAGTACT (sugars l4 d12 l3, PS) = false

(Q) Given GCTTCTTCTATCTACG (sugars l3 d10 l3, PS) , state whether its target mRNA inhibition is at least 70%.
(A) true

(Q) Given TCTATCTACGCATTGTATCG (sugars l2 d16 l2, PS) , state whether its target mRNA inhibition is at least 70%.
(A) false

(Q) Given TATCGACTGCATTAGTTGG (sugars l3 d14 l2, PS) , state whether its target mRNA inhibition is at least 70%.
(A) false

(Q) Given CAATGTGTAAGAAGTA (sugars l4 d8 l4, PS) , state whether its target mRNA inhibition is at least 70%.
(A) true

(Q) Given CAATGTGTAAGAAGTA (sugars l3 d9 l4, PS) , state whether its target mRNA inhibition is at least 70%.
(A) true

(Q) Given ATCTACGCATTGTATCGAC (sugars l3 d14 l2, PS) , state whether its target mRNA inhibition is at least 70%.
(A) false

(Q) Given CAATGTGTAAGAAGTACTT (sugars l4 d11 l4, PS) , state whether its target mRNA inhibition is at least 70%.
(A) true

(Q) Given GAAGTACTTTAATAGCTCAA (sugars l4 d13 l3, PS) , state whether its target mRNA inhibition is at least 70%.
(A) true

(Q) Given TGTATCGACTGCATTAGTT (sugars l3 d14 l2, PS) , state whether its target mRNA inhibition is at least 70%.
(A) true

(Q) Given TATCTACGCATTGTAT (sugars l4 d8 l4, PS) , state whether its target mRNA inhibition is at least 70%.
(A) true

(Q) Given ATCTACGCATTGTATCG (sugars l4 d10 l3, PS) , state whether its target mRNA inhibition is at least 70%.
(A) true

(Q) Given TTCTTCTATCTACGCA (sugars l3 d10 l3, PS) , state whether its target mRNA inhibition is at least 70%.
(A) true

----------
System tested: KRAS
Condition details: ASO, A431, 2 µM
After the bases stand the sugars from the 5' end (letter, count) and the backbone: PS all phosphorothioate, else s phosphorothioate and o phosphodiester by linkage. Methylation of C is not given here. e = 2'-O-(2-methoxyethyl) (MOE); k = constrained ethyl (cEt); d = 2'-deoxy (DNA)
Item-by-item account of target mRNA inhibition
Answer in %, number only, no unit symbol.

In the examples that follow, each entry is paired with its recorded target mRNA inhibition.
* AGGCATTGCTAGTTCA (sugars k3 d10 k3, PS) | 55
* CCAGTGATACTTTCAC (sugars kdddddddddkekeke, PS) | 16
* CAGATTGTGCTGAGCT (sugars k3 d10 k3, PS) | 29
* ATGGTGAATATCTTCA (sugars k3 d10 k3, PS) | 64
* CCATTTATGTGACTAG (sugars kkdddddddddkdkdk, PS) | 43
* AGCTATTAGGAGTCTT (sugars k3 d10 k3, PS) | 35
* CTTACAAATCTGAATT (sugars k3 d10 k3, PS) | 7
* GGAGTCTTTATAGTAA (sugars k3 d9 k3 e1, PS) | 41
* AAAGTGTTTATGCAAT (sugars k3 d10 k3, PS) | 29
* TGGTGTAACATAGGTT (sugars kkdddddddddkdkdk, PS) | 57

(Q) Record request: target mRNA inhibition value, item GGTGTAACATAGGTTA (sugars kkddddddddkekekk, PS)
(A) 54

----------
System tested: HTRA1
Condition details: ASO, U251, 5 µM
After the bases stand the sugars from the 5' end (letter, count) and the backbone: PS all phosphorothioate, else s phosphorothioate and o phosphodiester by linkage. Methylation of C is not given here. l = locked nucleic acid (LNA); d = 2'-deoxy (DNA)
Measured quantity: target mRNA inhibition (%)
Answer in %, number only, no unit symbol.

• CTACGCATTGTATCGA (sugars l3 d10 l3, PS) = 96

(Q) Record request: target mRNA inhibition value, item CTGACTTGGAGAAAAGCAC (sugars l1 d16 l2, PS)
(A) -4

(Q) Record request: target mRNA inhibition value, item GTAAGAAGTACTTTAATAG (sugars l4 d11 l4, PS)
(A) 80

(Q) Record request: target mRNA inhibition value, item TGTATCGACTGCATTAGTTG (sugars l2 d16 l2, PS)
(A) 49

(Q) Record request: target mRNA inhibition value, item TTCTATCTACGCATTGTATC (sugars l3 d15 l2, PS)
(A) 64

(Q) Record request: target mRNA inhibition value, item GTATCGACTGCATTAGTTGG (sugars l1 d17 l2, PS)
(A) 41

(Q) Record request: target mRNA inhibition value, item TCTACGCATTGTATCGAC (sugars l4 d12 l2, PS)
(A) 74

(Q) Record request: target mRNA inhibition value, item GCAATGTGTAAGAAGTACTT (sugars l2 d14 l4, PS)
(A) 49

(Q) Record request: target mRNA inhibition value, item TCTACGCATTGTATCG (sugars l3 d10 l3, PS)
(A) 97

(Q) Record request: target mRNA inhibition value, item AGAGTCATCGTGCTCC (sugars l3 d10 l3, PS)
(A) 65

(Q) Record request: target mRNA inhibition value, item ATTGTATCGACTGCATTA (sugars l4 d11 l3, PS)
(A) 82

----------
Item-by-item account of target mRNA inhibition
System tested: MALAT1
Condition details: ASO, A431, 0.005 µM
After the bases stand the sugars from the 5' end (letter, count) and the backbone: PS all phosphorothioate, else s phosphorothioate and o phosphodiester by linkage. Methylation of C is not given here. k = constrained ethyl (cEt); d = 2'-deoxy (DNA)
Answer in %, number only, no unit symbol.

In the examples that follow, each entry is paired with its recorded target mRNA inhibition.
* CTTCAACAATCACTAC (sugars k3 d10 k3, PS) | 2
* GTACGAAACTCCCCCA (sugars k3 d10 k3, PS) | 38
* TCCCCCAACTGCTTGC (sugars k3 d10 k3, PS) | 11
* GCCTTTTCTAACATAG (sugars k3 d10 k3, PS) | -1

(Q) Record request: target mRNA inhibition value, item GCCTTTGTGAGGGAGG (sugars k3 d10 k3, PS)
(A) -23

(Q) Record request: target mRNA inhibition value, item CTCGATGGAAAAATTT (sugars k3 d10 k3, PS)
(A) 8

----------
System tested: APOL1
Condition details: ASO, A431, 2 µM
After the bases stand the sugars from the 5' end (letter, count) and the backbone: PS all phosphorothioate, else s phosphorothioate and o phosphodiester by linkage. Methylation of C is not given here. e = 2'-O-(2-methoxyethyl) (MOE); k = constrained ethyl (cEt); d = 2'-deoxy (DNA)
Measured quantity: target mRNA inhibition (%)
Answer in %, number only, no unit symbol.

In the examples that follow, each entry is paired with its recorded target mRNA inhibition.
• GTAAGTATTGCCAGCT (sugars kkkddddkekekdddd, PS) = 73
• GCTAATTTTCTGACTG (sugars k3 d4 k3 e1 d5, PS) = 92
• ACGCAATGCTGACTTG (sugars kkkddddkekekdddd, PS) = 71

Here is another sequence to look at.
(Q) Record request: target mRNA inhibition value, item CTGAAGATTGGCTCTG (sugars kkkddddkekekdddd, PS)
(A) 36

----------
Item-by-item account of target mRNA inhibition
System tested: MALAT1
Condition details: ASO, A431, 0.005 µM
After the bases stand the sugars from the 5' end (letter, count) and the backbone: PS all phosphorothioate, else s phosphorothioate and o phosphodiester by linkage. Methylation of C is not given here. k = constrained ethyl (cEt); d = 2'-deoxy (DNA)
Answer in %, number only, no unit symbol.

In the examples that follow, each entry is paired with its recorded target mRNA inhibition.
* CCTATCTTCTCCAGTC (sugars k3 d10 k3, PS) | -13
* GTGTGATAGTTCAGGG (sugars k3 d10 k3, PS) | 8
* TAAACGGGTCATCAAA (sugars k3 d10 k3, PS) | 34
* CCCACAGGAACAAGTC (sugars k3 d10 k3, PS) | 14
* CTTATTTAGAGGGCCT (sugars k3 d10 k3, PS) | 36

Here is another sequence to look at.
(Q) Record request: target mRNA inhibition value, item CCCCGTCCTGGAAACC (sugars k3 d10 k3, PS)
(A) 21
